Test system: human PBMCs
PROTOCOL_TEXT: IL-6 secretion in human PBMCs, two batches of Compound A and SC12
Type: cell-based
EXPERIMENTAL_CONDITIONS: Donor 1; 24 h, 4 doses; listed as SC12 old CH730/2/13D
pEC50: −log10 of the molar value.
VALUE_KIND: pEC50

[[record]]
compound = "CCCCCCCCCCCC(=O)OCC(COP(=O)(O)OCCNC(=O)c1ccc(Cn2c(=O)[nH]c3c(N)nc(OCCOC)nc32)cc1)OC(=O)CCCCCCCCCCC (stereo not shown)"
value_kind = "pEC50"
recorded_measurement = 5.70


====

TESTED_SYSTEM: CYP2D6 (Homo sapiens (Human), UniProt P10635)
Sequence (P10635 whole entry, looked up): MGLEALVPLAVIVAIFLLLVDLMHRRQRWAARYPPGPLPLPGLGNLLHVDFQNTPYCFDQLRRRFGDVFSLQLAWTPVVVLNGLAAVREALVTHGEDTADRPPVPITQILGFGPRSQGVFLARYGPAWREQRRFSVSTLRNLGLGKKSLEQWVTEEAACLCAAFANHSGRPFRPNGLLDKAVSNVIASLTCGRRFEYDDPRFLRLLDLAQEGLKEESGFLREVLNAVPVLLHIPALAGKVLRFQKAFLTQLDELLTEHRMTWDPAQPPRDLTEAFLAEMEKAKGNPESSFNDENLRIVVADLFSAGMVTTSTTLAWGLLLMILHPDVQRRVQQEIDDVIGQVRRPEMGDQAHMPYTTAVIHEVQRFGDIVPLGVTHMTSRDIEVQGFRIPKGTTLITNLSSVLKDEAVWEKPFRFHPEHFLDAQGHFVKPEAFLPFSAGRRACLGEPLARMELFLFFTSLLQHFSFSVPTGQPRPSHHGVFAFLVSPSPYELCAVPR
PROTOCOL_TEXT: Fluorescent High Throughput P450 assay, CYP2D6
Format: biochemical
EXPERIMENTAL_CONDITIONS: substrate AMMC; read-out: CYP2D6 IC50 (Mean ± S.D.)
pIC50: −log10 of the molar value.
VALUE_KIND: pIC50

[[record]]
molecule = "CCCCCCCCCCCC(=O)OCC(COP(=O)(O)OCCNC(=O)c1ccc(Cn2c(=O)[nH]c3c(N)nc(OCCOC)nc32)cc1)OC(=O)CCCCCCCCCCC (stereo not shown) [SC12]"
value_kind = "pIC50"
recorded_measurement = 4.17


====

Tested on: whole blood
PROTOCOL_TEXT: Cytokine secretion in human whole blood assay (ELISA)
Format: cell-based
EXPERIMENTAL_CONDITIONS: Donor 3; read-out: EC50-IFN-alpha, 24 h Incubation
pEC50: −log10 of the molar value.
VALUE_KIND: pEC50

[[record]]
molecule = "CCCCCCCCCCCC(=O)OCC(COP(=O)(O)OCCNC(=O)c1ccc(Cn2c(=O)[nH]c3c(N)nc(OCCOC)nc32)cc1)OC(=O)CCCCCCCCCCC (stereo not shown)"
tested_system = "whole blood"
value_kind = "pEC50"
recorded_measurement = 6.62


====

Tested on: human PBMCs
PROTOCOL_TEXT: IL-6 secretion in human PBMCs, two batches of Compound A and SC12
Assay type: cell-based
EXPERIMENTAL_CONDITIONS: Donor 1; 24 h, 4 doses; listed as Compound A new 20289
VALUE_KIND: EC50 (nM)

[[record]]
compound = "CCCCCCCC/C=C\\CCCCCCCC(=O)OCC(COP(=O)(O)OCCNC(=O)c1ccc(Cn2c(=O)[nH]c3c(N)nc(OCCOC)nc32)cc1)OC(=O)CCCCCCC/C=C\\CCCCCCCC (stereo not shown)"
recorded_measurement = 721


====

Test system: PBMCs
PROTOCOL_TEXT: IL-6 and TNF-alpha secretion in PBMCs from three donors (ELISA)
Format: cell-based, human
EXPERIMENTAL_CONDITIONS: D1, first experiments on three donors; read-out: EC50 values, IL-6 secretion
Each item that follows carries a reported EC50.
VALUE_KIND: EC50 (nM)

[[record]]
molecule = "CCCCCCCCCCCC(=O)OCC(COP(=O)(O)OCCNC(=O)c1ccc(Cn2c(=O)[nH]c3c(N)nc(OCCOC)nc32)cc1)OC(=O)CCCCCCCCCCC (centres unmarked) [SC12]"
recorded_measurement = 1440

[[record]]
molecule = "CCCCCCCC/C=C\\CCCCCCCC(=O)OCC(COP(=O)(O)OCCNC(=O)c1ccc(Cn2c(=O)[nH]c3c(N)nc(OCCOC)nc32)cc1)OC(=O)CCCCCCC/C=C\\CCCCCCCC (centres unmarked) [Compound A]"
recorded_measurement = 460

